system: NCI-H522 lung; experiment: NCI tumour cell line growth inhibition, 48 h
Endpoint Name: TGI (µM)
Report as a plain number; the unit µM is understood.

// TGI value for "CCCN(CCC)c1ccc(/C=N/NC(=O)c2cccnc2)cc1" : 46.8

// TGI value for CCC[CH2][Ge]([CH2]CCC)([CH2]CCC)[O]C(=O)C(OC(C)=O)c1ccccc1 (stereo not given) : 8.88

// TGI value for "C=CCCCCn1c2ccccc2c2c(C)c3c[n+](C)ccc3c(C)c21" : 0.608

// TGI value for Cc1csc(-c2ccc3c(c2)COC3(CCCN(C)C)c2ccc(F)cc2)c1 (stereo not given) : 4.31

---

test system: SR leukemia; assay: NCI tumour cell line growth inhibition, 48 h; in the data active = GI50 below about 0.43 µM; inactive = the rest
Reply using exactly one outcome from active, inactive

[in] Could you please tell me the result logged for "O=C(c1ccncc1)N1CCN(C2=NS(=O)(=O)c3ccccc3N2c2ccccc2)CC1" in this assay?
[out] active

[in] Could you please tell me the result logged for Nc1ncnc2c1c(C(=O)NO)cn2C1OC(CO)C(O)C1O (stereo not given) in this assay?
[out] active

[in] Could you please tell me the result logged for "CN1CCN(CCCOc2ccc3nc(Nc4ccc(C(F)(F)F)c(Cl)c4)ccc3c2)CC1" in this assay?
[out] inactive

[in] Could you please tell me the result logged for "CC(C)NCCCCCNc1cc(O)cc2cccnc12" in this assay?
[out] inactive

[in] Could you please tell me the result logged for CC(=O)OC1CC(C)c2c(Cl)ncnc21 (stereo not given) in this assay?
[out] inactive

[in] Could you please tell me the result logged for "COc1cc(CCNc2nc3cc(N)cc(N)c3nc2-c2ccccc2)cc(OC)c1" in this assay?
[out] active

[in] Could you please tell me the result logged for "CC#CC(=O)N[C@H]1CCCN(c2c(F)cc(C(N)=O)c3[nH]c(C)c(C)c23)C1" in this assay?
[out] inactive

[in] Could you please tell me the result logged for "COC(=O)c1cc(NC(=O)CN(CCN(CC(=O)O)CC(=O)Nc2ccc(O)c(C(=O)OC)c2)CC(=O)O)ccc1O" in this assay?
[out] inactive

[in] Could you please tell me the result logged for "O=C(Nc1cccc(-n2cc(-c3ccncc3)c(-c3ccc(O)c(Cl)c3)n2)c1)c1ccc(N2CCOCC2)c(C(F)(F)F)c1" in this assay?
[out] inactive

[in] Could you please tell me the result logged for "O=C1CCCC(=O)C1C(=O)c1ccc(C(F)(F)F)cc1[N+](=O)[O-]" in this assay?
[out] inactive

---

test system: HOP-92 NSCLC; assay: NCI tumour cell line growth inhibition, 48 h
Endpoint Name: TGI

// TGI value for N#CC(C(=O)C(=O)Nc1ccc(Cl)c(Cl)c1)c1ccc(Cl)cc1 (stereo not given) : 99.2 µM

// TGI value for "CNC(=O)OCc1cc2ccncc2c2c1[nH]c1ccccc12" : > 100 µM

// TGI value for Cc1csc(-c2ccc3c(c2)COC3(CCCN(C)C)c2ccc(F)cc2)c1 (stereo not given) : 3.17 µM

// TGI value for "COc1cc(S(=O)(=O)Nc2ccc(-c3csc(/N=C\C=C\c4ccccc4)n3)cc2)ccc1Cl" : 75.9 µM

// TGI value for "CCCCC/C=C\C/C=C/CCCCCCCCNC(=O)Nc1ccc([N+](=O)[O-])cc1" : 35.4 µM

---

system: LOX IMVI melanoma; assay: NCI tumour cell line growth inhibition, 48 h
Where a SMILES comes first, the peptide text is derived from it. [ ]: non-standard residue; d: D form. The star is where a group is joined. ξ: configuration not given here. ξW = NC(Cc1c[nH]c2ccccc12)C(=O)O; X30 = O=C(O)[C@H]1CCC[C@H]1N*; ξF = NC(Cc1ccccc1)C(=O)O; Boc = CC(C)(C)OC(=O)*; ξK = NCCCCC(N)C(=O)O; ξT = CC(O)C(N)C(=O)O; tBu = CC(C)(C)*
Endpoint Name: TGI

// TGI value for "Cc1ccc(N=Nc2c(C)nn(C(=O)CC(=O)Nc3ccc(Cl)cc3)c2C)cc1C" : > 100 µM

// TGI value for "CC(=O)[C@]1(C)[C@H](C)O[C@](C)(CO)[C@H]1O[Si](C)(C)c1ccccc1" : 44.4 µM

// TGI value for Cc1cc(=O)[nH]c(NN2C(Cl)C(=O)C2c2c(O)ccc3ccccc23)n1 (stereo not given) : 32.7 µM

// TGI value for Nc1nc(NCC2(CO)CC(CCc3ccccc3)C2)cc(=O)[nH]1 (stereo not given) : > 100 µM

// TGI value for "C=C(CN(C)C)C(=O)c1ccc(OC)cc1" : 25.4 µM

// TGI value for "CNC(=O)c1c(NC(=O)c2ccc(C(C)C)cc2)sc2c1CCC(=O)C2" : 1.29 µM

// TGI value for "COc1ccc2c(c1)c(-c1nc(-c3cn(C)c4ncccc34)cs1)cn2CCCCN1CCOCC1" : 2.68 µM

// TGI value for CCCCC1=CC1(C#N)[N+](=O)[O-] (stereo not given) : > 100 µM

// TGI value for "Cc1[nH]c2ccccc2c1C1=CC(=O)C=CC1=O" : 22.3 µM

// TGI value for "COc1cc(O)c2c(c1O)C(=O)c1cc(C)ncc1C2=O" : 45.2 µM

// TGI value for "Cc1cccc(Nc2nc(NNC(=O)Cc3ccccc3)nc(NNC(=O)c3ccncc3)n2)c1" : > 10 µM

// TGI value for COc1cc2c(cc1O)-c1c(OC)c(O)cc3c1C(C2)N(C)CC3 (stereo not given) : > 100 µM

// TGI value for "COc1ccc(OC)c(-c2cc(C(=O)O)c3cc4ccccc4cc3n2)c1" : > 100 µM

// TGI value for CC(OC(C)(C)C)C(NC(=O)C(CCCCNC(=O)OC(C)(C)C)NC(=O)C(Cc1c[nH]c2ccccc12)NC(=O)C(N)Cc1ccccc1)C(=O)NC(Cc1ccccc1)C(=O)N[C@@H]1CCC[C@@H]1C(=O)O (stereo not given in full) (H-[ξF][ξW][ξK](Boc)[ξT](tBu)[ξF]-X30) : 60 µM

// TGI value for O=c1[nH]cnc2c1ncn2C1SC(CO)C(O)C1O (stereo not given) : > 100 µM

// TGI value for "CCOC(=O)/C(=C/c1ccc(Cl)cc1)N(CC)CC" : > 100 µM

// TGI value for "Nc1nc(Sc2ccc([N+](=O)[O-])cn2)c2[nH]cnc2n1" : 17.1 µM

// TGI value for "Nc1ccc(-c2nc3ccccc3s2)cc1I" : > 100 µM

// TGI value for "O=C(c1ccncc1)N1CCN(C2=NS(=O)(=O)c3ccccc3N2c2ccccc2)CC1" : > 100 µM

// TGI value for "COc1ccc(/C(Cl)=C(\CNc2ccccn2)c2ccccc2)cc1OC" : > 100 µM

---

system: HS 578T breast; test: NCI tumour cell line growth inhibition, 48 h
Endpoint Name: TGI

// TGI value for Cc1ccc(C2SC(N)=Nc3c2c(C)nn3C(=O)c2ccc(Cl)cc2)cc1 (stereo not given) : > 10 µM

// TGI value for "Cc1cccc(Nc2nc(NNC(=O)Cc3ccccc3)nc(NNC(=O)c3ccncc3)n2)c1" : > 10 µM

// TGI value for COCO[C@@H]1CC2C=Nc3cc(OCc4ccccc4)c(OC)cc3C(=O)N2C1 (stereo not given in full) : 4.97 µM

// TGI value for "Cc1nc2sc(C(=O)Nc3cccc(Cl)c3C)c(N)c2cc1C(=O)c1ccccc1" : > 50 µM

// TGI value for CC(=O)OC(C#N)CC(C)(C)/[N+]([O-])=[N+](\[O-])C(C)(C)CC(C#N)OC(C)=O (stereo not given) : 55.2 µM

// TGI value for Nc1nc(Cl)nc2c1ncn2C1CCC(COP(=O)(O)OP(=O)(O)OP(=O)(O)O)O1 (stereo not given) : > 100 µM

// TGI value for O=C(NCc1cccs1)OC1CC2CCC1C2 (stereo not given) : > 100 µM

// TGI value for Nc1ncnc2c1c(C(=O)NO)cn2C1OC(CO)C(O)C1O (stereo not given) : 3.54 µM

// TGI value for "O=[N+]([O-])c1ccc(NN=C2c3ccccc3Cc3ccccc32)c([N+](=O)[O-])c1" : > 80.4 µM

// TGI value for "CN(C)C=Nc1c(Br)cc(Br)c2nonc12" : > 100 µM

---

test system: SF-268 CNS; experiment: NCI tumour cell line growth inhibition, 48 h
Field: TGI. Provide a value for each of the molecules that follow.

// TGI value for "CC(=O)[C@]1(C)[C@H](C)O[C@](C)(CO)[C@H]1O[Si](C)(C)c1ccccc1" : > 100 µM

// TGI value for "NS(=O)(=O)c1ccc(N=Nc2nc3[nH]cnc(=S)c3[nH]2)cc1" : > 100 µM

// TGI value for "CCCCC/C=C\C/C=C/CCCCCCCCNC(=O)Nc1ccc([N+](=O)[O-])cc1" : > 100 µM

// TGI value for "C=CCCCCn1c2ccccc2c2c(C)c3c[n+](C)ccc3c(C)c21" : 1.56 µM

// TGI value for Cc1ccc(C(CC(=O)c2ccccc2)C(C(=O)c2ccccc2)C(c2ccc(C)cc2)C2C(=O)NC(=S)NC2=O)cc1 (stereo not drawn) : > 50 µM

// TGI value for N#CC1C(=O)NC2=C(CCOc3c2ccc2ccccc32)C1c1ccc(F)cc1 (stereo not drawn) : 88.8 µM

// TGI value for "CO[C@]12CCC(=O)N1C=Cc1c2[nH]c2ccccc12" : > 100 µM

// TGI value for "O=C1c2ccccc2CCC1(Br)Br" : 14.1 µM

// TGI value for "CCCN(CCC)c1ccc(/C=N/NC(=O)c2cccnc2)cc1" : > 100 µM

// TGI value for "O=C1NCC2(CCNCC2)N1" : > 100 µM

// TGI value for "N=C(N)c1ccc(-c2ccc(-c3ccc(Cl)c(Cl)c3)o2)nc1" : 4.73 µM

// TGI value for Oc1c2c(c3c4c1N=CC=4CCN=3)C1(C=C(Br)C(O)C(Br)=C1)CCN2 (stereo not drawn) : 5.75 µM

// TGI value for Nc1nc(Cl)nc2c1ncn2C1CCC(COP(=O)(O)OP(=O)(O)OP(=O)(O)O)O1 (stereo not drawn) : > 100 µM
